measurement_description: TG-FTIR thermogram, beginning of decomposition
Assay type: physicochemical
assay_conditions: N2 atmosphere; 10° C./min, 25 to 300° C.
measured_quantity: decomposition beginning at a temperature (TG-FTIR)

compound: Cc1ccc(S(=O)(=O)n2cc(F)c(=N)n(C)c2=O)cc1 [Form S5]
recorded_measurement: greater than 180 °C

compound: Cc1ccc(S(=O)(=O)n2cc(F)c(=N)n(C)c2=O)cc1 [Form I]
recorded_measurement: greater than 210 °C

compound: Cc1ccc(S(=O)(=O)n2cc(F)c(=N)n(C)c2=O)cc1 [Form S8]
recorded_measurement: greater than 180 °C

compound: Cc1ccc(S(=O)(=O)n2cc(F)c(=N)n(C)c2=O)cc1 [Form II]
recorded_measurement: greater than 210 °C

# credit: patent US11632954B2
